# STUDY TARGET: P2X purinoceptor 7 (Homo sapiens)
# Sequence (Q99572 whole entry): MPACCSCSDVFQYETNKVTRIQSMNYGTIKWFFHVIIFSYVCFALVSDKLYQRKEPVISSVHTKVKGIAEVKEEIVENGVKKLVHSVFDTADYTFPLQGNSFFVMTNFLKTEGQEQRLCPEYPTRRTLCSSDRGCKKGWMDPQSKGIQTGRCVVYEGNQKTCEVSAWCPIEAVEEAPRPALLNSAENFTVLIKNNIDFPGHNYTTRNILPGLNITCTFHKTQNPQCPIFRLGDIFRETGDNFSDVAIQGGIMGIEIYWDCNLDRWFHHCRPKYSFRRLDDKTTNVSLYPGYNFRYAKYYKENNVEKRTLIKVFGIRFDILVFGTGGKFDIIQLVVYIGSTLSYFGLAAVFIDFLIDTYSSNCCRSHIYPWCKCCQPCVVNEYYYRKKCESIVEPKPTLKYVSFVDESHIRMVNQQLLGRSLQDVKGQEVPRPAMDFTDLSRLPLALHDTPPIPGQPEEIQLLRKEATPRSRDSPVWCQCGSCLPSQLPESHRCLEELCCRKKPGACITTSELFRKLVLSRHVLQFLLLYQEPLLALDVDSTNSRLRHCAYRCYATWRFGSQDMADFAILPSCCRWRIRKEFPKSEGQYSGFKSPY
# MEASUREMENT PROTOCOL: Antagonist activity at human P2X7 receptor expressed in HEK293 cells assessed as inhibition of BzATP-induced calcium mobilization incubated for 30 mins by Fluo-4 NW dye based tetra FLIPR assay
# Format: cell-based
READOUT TYPE: IC50
Remember to follow the number with its unit.

[ask] Need IC50 of Cc1ncc(C(CNC(=O)c2cc(-c3ncc(F)cn3)ccc2Cl)N2CCCC(F)(F)C2)s1 (stereo unspecified) , thanks.
[reply] 22 nM

* * *

# MEASUREMENT PROTOCOL: Fraction unbound in human plasma
# Type: ADME, cell-free
READOUT TYPE: fraction unbound
Respond using a number only.

[ask] Which fraction unbound value is on record for `Cc1nc2c(c(-c3ccccc3)n1)CCN(C(=O)c1cccc(C(F)(F)F)c1Cl)C2` ?
[reply] 0.032

* * *

# MEASUREMENT PROTOCOL: Oral bioavailability in rat at 10 mg/kg
# Type: ADME, organism-based
# PROTOCOL CONDITIONS: in vivo
READOUT TYPE: bioavailability (%)
Supply the numeric figure in %, leaving out any unit text.

[ask] Consider the compound shown here: `O=C(c1cccc(C(F)(F)F)c1Cl)N1CCn2c(nnc2C(F)(F)F)[C@H]1c1ccccc1` What is its recorded bioavailability?
[reply] 78

* * *

# STUDY TARGET: P2X purinoceptor 7 (Homo sapiens)
# MEASUREMENT PROTOCOL: Antagonist activity at human P2X7 receptor expressed in HEK293 cells assessed as inhibition of BzATP-induced calcium mobilization monitored for 5 mins followed by stimulation with BzATP measured after 3 mins by Fluo-8 NW dye based tetra FLIPR assay
# Type: cell-based
READOUT TYPE: IC50 (nM)
Reply numerically in nM, unit not repeated.

[ask] Give its IC50 value. Item: O=C(NCC(CC1(C(F)F)CC1)c1ccc(C2CC2)nc1)c1cccc(Cl)c1Cl (stereo unspecified)
[reply] 0.79

* * *

Can you tell me IC50 for the items I'm about to list?
# STUDY TARGET: P2X purinoceptor 7 (Rattus norvegicus, UniProt Q64663)
# Sequence (Q64663 whole entry): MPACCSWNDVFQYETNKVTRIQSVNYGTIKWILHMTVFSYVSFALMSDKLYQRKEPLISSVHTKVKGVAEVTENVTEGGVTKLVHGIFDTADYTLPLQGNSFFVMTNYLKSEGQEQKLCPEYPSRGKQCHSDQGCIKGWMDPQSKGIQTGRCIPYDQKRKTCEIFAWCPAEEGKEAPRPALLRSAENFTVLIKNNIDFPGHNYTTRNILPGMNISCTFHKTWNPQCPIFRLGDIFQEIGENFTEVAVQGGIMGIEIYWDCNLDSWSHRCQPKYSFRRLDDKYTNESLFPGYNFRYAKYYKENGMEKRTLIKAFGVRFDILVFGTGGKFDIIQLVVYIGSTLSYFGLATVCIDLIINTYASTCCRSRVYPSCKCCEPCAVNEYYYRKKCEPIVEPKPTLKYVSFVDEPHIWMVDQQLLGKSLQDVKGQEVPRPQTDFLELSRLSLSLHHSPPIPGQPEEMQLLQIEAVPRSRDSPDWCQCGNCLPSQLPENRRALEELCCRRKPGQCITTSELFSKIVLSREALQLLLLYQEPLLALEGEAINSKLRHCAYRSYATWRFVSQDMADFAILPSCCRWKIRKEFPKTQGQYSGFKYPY
# MEASUREMENT PROTOCOL: Antagonist activity at rat P2X7 receptor expressed in 1321N1 cells assessed as inhibition of BzATP-induced calcium mobilization incubated for 30 mins measured after 180 seconds by calcium-4 dye based FLIPR assay
Write the answer as a number in nM, unit excluded.

[ask] Recorded IC50 of `Cc1nc2c(c(-c3ccn[nH]3)n1)CCN(C(=O)c1cccc(C(F)(F)F)c1Cl)C2` , please.
[reply] 1140

[ask] Follow-up item: `Cc1nnc2n1CCN(C(=O)c1cccc(C(F)(F)F)c1Cl)[C@@H]2c1ccccc1`
[reply] 27

[ask] Here is the next compound: `CCCCc1nnc2n1CCN(C(=O)c1cccc(C(F)(F)F)c1Cl)[C@@H]2c1ccccc1`
[reply] 20

[ask] Same question for `O=C(c1cccc(C(F)(F)F)c1Cl)N1CCn2c(nnc2C(F)(F)F)[C@H]1c1ccccc1` please.
[reply] 42

[ask] Let us now turn to `O=C(c1cccc(C(F)(F)F)c1Cl)N1CCn2c(C3CC3)nnc2[C@H]1c1ccccc1`
[reply] 17

[ask] Can you handle `O=C(c1cccc(C(F)(F)F)c1Cl)N1CCn2cnnc2[C@H]1c1ccccc1` next?
[reply] 64

* * *

# STUDY TARGET: P2X purinoceptor 7 (Homo sapiens, UniProt Q99572)
# MEASUREMENT PROTOCOL: Antagonist activity at human recombinant P2X7 receptor expressed in 1321N1 cells assessed as inhibition of BzATP-induced calcium mobilization incubated for 30 mins measured after 180 seconds by calcium-4 dye based FLIPR assay
# Format: cell-based
pIC50: −log10 of the molar value.
pIC50 of 8 or higher: MET. Under 8: NOT MET.

[ask] Hello, I need to know if `Cc1nnc2n1CCN(C(=O)c1cccc(C(F)(F)F)c1Cl)[C@@H]2c1ccccc1` has measured pIC50 not below 8. Thanks!
[reply] MET

[ask] What about `O=C(c1cccc(C(F)(F)F)c1Cl)N1CCn2cnnc2[C@H]1c1ccccc1` ?
[reply] MET

[ask] Same again, this time with `CCc1nnc2n1CCN(C(=O)c1cccc(C(F)(F)F)c1Cl)[C@@H]2c1ccccc1`
[reply] MET

[ask] Also `Cc1nc2c(c(-c3ccn[nH]3)n1)C[C@@H](C)N(C(=O)c1ccc(Cl)cc1F)C2` , if possible.
[reply] NOT MET

[ask] Try the compound `Cc1nc2c(c(-c3ccccc3)n1)CCN(C(=O)c1cccc(C(F)(F)F)c1Cl)C2`
[reply] NOT MET

* * *

Would you mind telling me the reported pIC50 of each entry?
# STUDY TARGET: P2X purinoceptor 7 (Homo sapiens)
# Sequence (Q99572 whole entry): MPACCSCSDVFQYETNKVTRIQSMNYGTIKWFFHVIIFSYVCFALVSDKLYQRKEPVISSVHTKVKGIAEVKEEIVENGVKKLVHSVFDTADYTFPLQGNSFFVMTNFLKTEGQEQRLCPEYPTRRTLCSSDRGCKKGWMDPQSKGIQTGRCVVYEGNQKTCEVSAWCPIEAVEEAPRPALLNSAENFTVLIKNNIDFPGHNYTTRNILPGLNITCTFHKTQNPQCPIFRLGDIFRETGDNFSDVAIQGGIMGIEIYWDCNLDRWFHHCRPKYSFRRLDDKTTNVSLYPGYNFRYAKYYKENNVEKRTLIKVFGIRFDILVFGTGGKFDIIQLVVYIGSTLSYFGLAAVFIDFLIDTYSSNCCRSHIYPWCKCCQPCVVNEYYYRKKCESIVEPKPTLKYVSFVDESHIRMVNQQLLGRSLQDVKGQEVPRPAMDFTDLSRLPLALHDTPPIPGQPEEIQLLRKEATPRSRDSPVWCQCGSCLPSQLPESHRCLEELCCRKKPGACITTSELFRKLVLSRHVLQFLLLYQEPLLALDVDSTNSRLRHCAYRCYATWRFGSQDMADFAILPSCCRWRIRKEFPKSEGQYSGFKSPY
# MEASUREMENT PROTOCOL: Antagonist activity at human recombinant P2X7 receptor expressed in 1321N1 cells assessed as inhibition of BzATP-induced calcium mobilization incubated for 30 mins measured after 180 seconds by calcium-4 dye based FLIPR assay
# Type: cell-based
In simple prose, pIC50 is minus the logarithm base ten of a concentration in moles per litre.

[ask] Return reported pIC50; argument: `O=C(c1cccc(C(F)(F)F)c1Cl)N1CCn2c(nnc2C(F)(F)F)[C@H]1c1ccccc1`
[reply] 8.06

[ask] Next entry: `Cc1nc2c(c(-c3ccn[nH]3)n1)CCN(C(=O)c1cccc(C(F)(F)F)c1Cl)C2`
[reply] 8.07

[ask] Record: `CC(C)(C)c1nnc2n1CCN(C(=O)c1cccc(C(F)(F)F)c1Cl)[C@@H]2c1ccccc1`
[reply] 7.96

[ask] Please do the same for `O=C(c1cccc(C(F)(F)F)c1Cl)N1CCn2c(C3CC3)nnc2[C@H]1c1ccccc1` as well.
[reply] 8.16

[ask] Proceed to `CCCCc1nnc2n1CCN(C(=O)c1cccc(C(F)(F)F)c1Cl)[C@@H]2c1ccccc1`
[reply] 8.07
